Record set of pIC50 for target or system Xanthine dehydrogenase/oxidase (Rattus norvegicus, UniProt P22985).
Note on pIC50: it is the negative log10 of concentration, concentration in mol/L.

COc1cc(C2Oc3cc(-c4oc5cc(O)cc(=O)c-5c(O)c4O)ccc3OC2CO)ccc1O (configuration not stated) [Dehydrosilylbin] | 4.10

Kindly consider the entry below.
If you can, please state the reported pIC50 value of COc1cc([C@@H]2Oc3cc(C4Oc5cc(O)cc(O)c5C(O)C4=O)ccc3O[C@H]2CO)ccc1O (some centres not stated) [SMR000857154] .
4.10
